- Assay Overview: yeast display, Sf9 membrane polyspecificity reagent, FACS + sequencing; frameworks hold sequencing errors

Seq String	polyreactivity (PSR sort gate)
QVQLVESGGGLVQAGGSLRLSCAASGFIFWAYAMGWYRLAPGKERELVAAITWNGGSTNYADSVKGRFTISRDNAKNTVYLQMNSLKPEDTAVYYCAVSRSLSFRYPGYYWGQGTQVTVSS	low polyreactivity
QVQLVESGGGLVQAGGSLRLSCAASGRTFYYYAMGWHRQAPGKERELVARIRSGGSTNYADSVKGRFTISRDNAKNTVYLQMNSLKPEDTAVYYCAAVRPPTPSRRREDYWGQGTQVTVSS	low polyreactivity
QVQRVESGGGLVQAGGSLRLSCAASGIIFDSYAMGWYRQAPGKERELVAAITSDSGRTYYADSVKGRFTISRDNAKNTVYLQMNSLKPEDTAVYYCAKGWDGTYDYWGQGTQVTVSS	low polyreactivity
QVQLVESGGGLVQAGGSLRLSCAASGSTFGGYAMGWYRQAPRKERELVAAISQSGTRTFYADSVKGRFSISRDNAKNTVYLQMKSLKPEDSAVYYCAAVRSYRRALLTLDYWGLGTQVTVSS	high polyreactivity
QVQLVESGGGLVQAGGSLRLSCAASGFTFISYAMGWYRQAPGKERELVAVINQRGGRTYYADSVKGRFTISRDNAKNTVYLQMNSLKPEDTAVYYCATRLKSVSGGYNYWGQGTQVTVSS	high polyreactivity

###

- Assay Overview: yeast display, Sf9 membrane polyspecificity reagent, FACS + sequencing; frameworks hold sequencing errors

Seq String	polyreactivity (PSR sort gate)
QVQIVESGGGLVQAGGSLRLSCAPSGRTFVGFAKGWYRQAPGKERELVAAISRTGGSTYYADSVKGRFTISRDNAKNTVYLQMNSLKPEDTAVYYCNAVTLSSTYGGHDYWGQGTQVTVSS	high polyreactivity
QVQLVESGGGLVQAGGSLRLSCAASGSTFFRYAMGWYRQAPGKERELVAAISWSGGTTYYADSVKGRFTISRDNAKNTVYLQMNSLKPEDTAVYYCAVDGGRWGQGTQVTVSS	low polyreactivity
QVQLVESGGCLVQAGGSLRLSCAASGSIFRYYNMGWYRQAPGKERELVAVINWSGGSTYYADSVKWRFTISRDNAKNTVYLQMNSLKPEDCAVYYCAICFWRTRRYGADPRTKYDYWGLGTQVTVSS	high polyreactivity
QVQLVESGGGLVQAGGSLRLSCAASGRTFLVYAMGWYRQAPGKERELVAAISSDGSTNYADSVKGRFTISRDNAKNTVYLQMNSLKPEDTAVYYCARDGRTEHRGFDYWGQGTQVTVSS	low polyreactivity
QVQLVESGGGLVQAGGSLRLSCAASGLILVPNTMGWYRQAPGKERELVAAISYSGGGTYYADSVKGRFTISRDNAKNTVYLQMNSLKAEDTAVYYCAAYVKRESAPYGYWGHGTQVTVSS	low polyreactivity
QVQLVDSGGGLVQAGGSLRLSCAASVFTFYCNAMGWYRQAPGKERELVAAITSTGNTYYADSVKGRFTISRDNAKNTVYLQMNSLKPEDTAVYYCARRGDILYDYWGQGTQVTVSS	low polyreactivity
QVQLVESGGGLVQAGGSLRLSCAASGYIFYFNDMGWYRQAPGKERELVADITYSGDSTYYADSVKGRFTISRDNAKNTVYLQMNSLKPEDTAVYYCAARRGWWYRGDDYWGQGTQVNVSS	low polyreactivity
QVQLVESGGGLVQAGGSLRLSCAASGRIFYINAMGWYIQAPGKERELVASITGSGGRTYYADSVKGRFTISRDNAKNTVYLQMNSLKPEDTAVYYCNADLYVGYLYYLYDYWGQGTQVTVSS	low polyreactivity
QVQLVESGGGLVQAGGSLRLSCAASGSIFYGNAMGWYRPAPGKERELVARISWSGSNTRYADSVKGRFTISRDNAKNTVYLQMNSLKPEDTAVYYCNARGFPGKFGYWGQGTQVTVSS	high polyreactivity
QVQLVESGGGLVQAGGSLRLSCAASGFIIYFNAMGWYRQAPGKERELVAAISASGGRTYYADSVKGRFTISRDNAKNTVYLQMNSLKPEDTAVYYCAADIRGYDYWGQGTQVTVSS	high polyreactivity

###

- Assay Overview: yeast display, Sf9 membrane polyspecificity reagent, FACS + sequencing; frameworks hold sequencing errors

Seq String	polyreactivity (PSR sort gate)
QVQLVESGGCLVQAGGTLRLSCAASGFTIRSNAMGWYRQAPGKERELVADISHGGGTSYADSVKGRFTISRDNAKNTVYLQRNSLKPEDTAVYYCAADLSTYVNYWWEYYYWGQGSQVTVSS	low polyreactivity
QVQLVESGGGLVQAGGSLRLSCAASGFIFGGYALGWYRQAPGKERELVAAISWSGDNTYYADSVKGRFTISRDNAKNTVYLQMNSLKPEDTAVYYCAADSYGQEYDYWGQGTQVTVSS	low polyreactivity
QVQLVESGGGLVQAGGSLRLSCAASGYIFSGNAMGWYRQAPGKERELVAAITRSDVNTDYADSVKGRFTISRDNAKNTVYLQMNSLKPEDTAVYSCNTRVRASSVDYDEGDYWGQGTQVTVSS	low polyreactivity

###

- Assay Overview: yeast display, Sf9 membrane polyspecificity reagent, FACS + sequencing; frameworks hold sequencing errors

Seq String	polyreactivity (PSR sort gate)
QVQLVESGGGLVQAGGSLRLSCAASGRTFRNYAMGWYRQAPGKERELVAAINSGGSTNYADSVKGRFTISRDNAKNTVYLQMNSLKPEDTAVYYCAKRRTYPGKGRFNYWGQGTQVTVSS	low polyreactivity
QVQLVESGGGLVQAGGSLRLSCAASGRTFPINTMGWYRQAPGKEREFVAAITLGGRTYYADSVKGRFTISRDNAKNTVYLQMNSLKPEDTAVYYCNARTYVRRPLGYWGQGTQVTVSS	high polyreactivity
QVQLVESGGGLVQAGGSLRLSCAASGFIFGLNAMGWYRQPPGKERELVAVISGRGRTYYADSVKGRFTISRDNAKNTVYLQMNSLKPEDTAVYYCNAVSSYGYDYWGQGTQVTVSS	high polyreactivity
QDQLVESGGGLVQAGGSLRLSCAASGLIYSYYALGWSRQATGKERELVASISRSGGSTYYADSVKGRFTISRDNAKNTVYLQMNILKPEDPAVYYCDAPGYYRTSRMDYWGQGTQVTVSS	high polyreactivity
QVQLVESGGGLVQAGGSLRLSCAASGRTCRRYTIGWYRQAPGKERELVAAITSGGRTNYADSVKGRFTISRDNAKNTVYLQMNSLKPEDTAVYYCNAQNEIWRVTFSPYDRWGYDYWGQGTQVTVSS	low polyreactivity
QVQLVESGGGLVQAGGSLRLSCAASGRTFVINAMGWYRQAPGKERELVAAISRGGSTNYADSVKGRFTISRDNAKNTVYLQMNSLKPEDTAVYYCNADYPNWWSPFDYWGQGTQVTVSS	low polyreactivity
QVQLVESGGGLVQAGGSLRLSCAASGRTFPYYAMGWYRQAPGKERELVAAISRRGASTYYADSVKGRFTISRDNAKNTVYLQMNSLKPEDTAVYYCNAVYRGYYSGELDYWGQGTQVTVSS	high polyreactivity
QVQLVESGGGLVQAGGSLRLSCAASGIIFRRYARGWYRQAPGKERELVAAITSGGDTNYADSVKGRFTISRDNAKNTVYLQMNSLKPEDTAVYYSNAGLRGVRRYGFDYWGQGTQVTVSS	high polyreactivity
QVQLVESGGGLVQAGGSLRLSCAASGSIFKRYARGWYRPAPGKERELVAAISWSGGNTYYADSVKGRFTISRDNSKNTVYLQMNSLKPEDTAVYYCAKRYRGGYYYPYNYWGQGTQVTVSS	high polyreactivity
QVQLVESGGGLVQAGGSLRLSCPASGIIFNDYAMGWYRQAPGKEREMVAAITSNGDNTYYADSVKGRFTISRDNAKNTVYLQMNSLKPEDTAVYYCAVDGSFAADFDNYLEEYGYWGQGTQVTVSS	low polyreactivity
QVQLVESGGGIVQEGGSLRLSCAASGSTFRDYAMGWYRQAPGKERELVAAISSRGATTYYADSVKGRFTISRDNAKNTVYLQMNSLKPEDTAVYYCNARQRRNPGGYGYWGQVTQVTVSS	high polyreactivity
QVQLVESGGGLVQAGGSFRLSCAASGLISTTYAMGWYRQAPGKERELVAAINVSGGSTYYADSVKGRFTISRDHAKNTVYLQMNSLKPEDTAVYYCAARHDKRRQYYVGQSAFDYWGQGTQVTVSS	low polyreactivity
QVQLVESGGGLVQAGGSLRLSCAASGSIFYVNDMGWYRQAPGKERELVAAISSTGSTKYADSVKGRFTISRDNAKNTVYLQMNSLKPEDTAVYYCAKEPGHRFEFDYWGQGTQVTVSS	low polyreactivity

###

- Assay Overview: yeast display, Sf9 membrane polyspecificity reagent, FACS + sequencing; frameworks hold sequencing errors

Seq String	polyreactivity (PSR sort gate)
QFQLVESGGGLVQAGGSLRLSCAASGRTFGGYAMGWYRQAAGKVREFVAALTYRGASTYYSDSVKGRFTISRDNAKNTVYFQMNSLKPEDTAVYYCAAEGSIKYFVGYTWGYNYWGQGTQVTVSS	low polyreactivity
QVQLVESGGGLVQAGGSLRLSCAASGRTFSAYAMGWYRQAPGKERELVAAISRRGGSTYYADSVKGRFTISRDNAKNTVYLQMNSLKPEDTAVYYCAAKIYYRSRAEMDWGQGTQVTVSS	high polyreactivity
QVQLVETGGGLVQAGGSLRLSCDASVSTFRYYTMGWYRQAPGKERELVASIRRGGSTNYADSVKGRFTISRDNAKNTVYLQMNSLKPEDTAVYYCNAKKGVYNGDAAKYDYWGPGTQVTVSS	high polyreactivity
QVQLVESVGGLVQAGGSLRLSCAATGSIFSYYAMGWYRQAPGKERELVAAISVSGGRTYYADSVNGRFTISRDNAKNTVYLQMNSLKPEDTAVYYCATRIRSYYYWGQGTQVTVSS	high polyreactivity
QVQLVESGGGLVQAGGSLRLSCASSGLIFAYYGMVWYRQAPGKEREFVAAISWRGGSTYYADSVKGRFTISRDNAKNTVYLQMNSLKPEDTAVYYCAARPLYGSARTNYGYWGQGTQVSVSS	high polyreactivity
QVQLVESGGGLVQAGGSLRLSCAASGRTFFRYAMGWYRQAPGKERELVAAITRGGSTNYADSVKGRFTISRDNAKNTVYLQMNSLKPEDTAVYYCAKTTFSYRGHYYWGQGTQVTVSS	high polyreactivity
QVQLVESGGGLVQAGGSLRLSCAASGLIFLYYAMGWYRQAPGKERELVAAISSSGSTYYADSVKGRFTISRDNAKNTVYLQMNSLKPEDTAVYYCAAAGYLYPYRYYYWGQGTQVTVSS	high polyreactivity
QVQLVESGGGLVQAGGSLRLSCAASGRKLSWNTMGWYRQAPGKETELVACITQNVGSTYYADSVKGRFTISRDNAKNTVYIQMKSLKPEDTAVYYCAAKRLSWHRYGYWGQGTQETVSS	low polyreactivity
QVQLVESGGGLVQAGGSLRLSCAASGRTFFSNAMGWYRPAPGKERELVAAISNGDNTYYADSVKGRFTISRDNAKNTVYLQMNSLKPEDTAVYYCAADQYWSWIYYPVVEYDYWGQGTQVTVSS	low polyreactivity
QVQLVDSGGGLVQAGGSLRLSCAASGSIFWDYAMGWYRQAPGIERELVASIPSGGSTYYADSVKGRFTISRDNAKKTVYLQMNRLKPEDTAVYYCAADGHTRHWGQTGRGAMYYWGQGTQVTVSS	low polyreactivity
QVHLVESGGPLVQAGGSLRLSCAASGYTFWGNAMGWYRQAPGKERELVAGITGSGVSTYYADSVKGRFTISRDNAKNTVYLQMNNLKPEDTAVYYCARRVVFAHKYATSYFLLEYGYWGQGTQVSVSS	low polyreactivity

Data credit: the nanobody polyreactivity screen of Harvey et al. (2022)
